The measured values listed here are drawn from ChEMBL document CHEMBL3526037.

- assay_name: Tmax in human plasma expressing CYP2C9*1/*1 polymorphism treated with losartan at 50 mg by LC/MS/MS analysis
- Format: ADME, organism-based

molecule	Tmax / h
CCCCc1nc(Cl)c(C(=O)O)n1Cc1ccc(-c2ccccc2-c2nn[nH]n2)cc1 [CARBOXYLIC ACID METABOLITE]	3.7

----------
- assay_name: Cmax in men plasma treated with losartan at 50 mg by LC/MS/MS analysis
- Assay type: ADME, organism-based
- Set-up: dose 50 mg
- condition_set: male, human

molecule	Cmax / ng/mL
CCCCc1nc(Cl)c(C(=O)O)n1Cc1ccc(-c2ccccc2-c2nn[nH]n2)cc1 [CARBOXYLIC ACID METABOLITE]	209

----------
- assay_name: Tmax in human plasma expressing CYP2C9*1/*1 polymorphism at 80 mg by LC/MS/MS analysis
- Format: ADME, organism-based
result_type: Tmax (h)

smiles_string	result_type	readout_number
CCCc1nc2c(C)cc(-c3nc4ccccc4n3C)cc2n1Cc1ccc(-c2ccccc2C(=O)O)cc1	Tmax	1.4

----------
- assay_name: Tmax in human plasma expressing CYP2C8*3 allele carrier polymorphism treated with losartan at 50 mg by LC/MS/MS analysis
- Assay type: ADME, organism-based

compound	Tmax [h]
CCCCc1nc(Cl)c(C(=O)O)n1Cc1ccc(-c2ccccc2-c2nn[nH]n2)cc1 [CARBOXYLIC ACID METABOLITE]	3.7
